target: T1, human MET ECD (human, UniProt P08581 25-932); experiment: ELISA, WT or mutant hMET ECD coated
T1 construct: range 1-932; recombinant; range as printed includes the signal peptide; also called hMET; hMET ECD
T1 sequence (P08581 25-932 limits assumed, form in doubt): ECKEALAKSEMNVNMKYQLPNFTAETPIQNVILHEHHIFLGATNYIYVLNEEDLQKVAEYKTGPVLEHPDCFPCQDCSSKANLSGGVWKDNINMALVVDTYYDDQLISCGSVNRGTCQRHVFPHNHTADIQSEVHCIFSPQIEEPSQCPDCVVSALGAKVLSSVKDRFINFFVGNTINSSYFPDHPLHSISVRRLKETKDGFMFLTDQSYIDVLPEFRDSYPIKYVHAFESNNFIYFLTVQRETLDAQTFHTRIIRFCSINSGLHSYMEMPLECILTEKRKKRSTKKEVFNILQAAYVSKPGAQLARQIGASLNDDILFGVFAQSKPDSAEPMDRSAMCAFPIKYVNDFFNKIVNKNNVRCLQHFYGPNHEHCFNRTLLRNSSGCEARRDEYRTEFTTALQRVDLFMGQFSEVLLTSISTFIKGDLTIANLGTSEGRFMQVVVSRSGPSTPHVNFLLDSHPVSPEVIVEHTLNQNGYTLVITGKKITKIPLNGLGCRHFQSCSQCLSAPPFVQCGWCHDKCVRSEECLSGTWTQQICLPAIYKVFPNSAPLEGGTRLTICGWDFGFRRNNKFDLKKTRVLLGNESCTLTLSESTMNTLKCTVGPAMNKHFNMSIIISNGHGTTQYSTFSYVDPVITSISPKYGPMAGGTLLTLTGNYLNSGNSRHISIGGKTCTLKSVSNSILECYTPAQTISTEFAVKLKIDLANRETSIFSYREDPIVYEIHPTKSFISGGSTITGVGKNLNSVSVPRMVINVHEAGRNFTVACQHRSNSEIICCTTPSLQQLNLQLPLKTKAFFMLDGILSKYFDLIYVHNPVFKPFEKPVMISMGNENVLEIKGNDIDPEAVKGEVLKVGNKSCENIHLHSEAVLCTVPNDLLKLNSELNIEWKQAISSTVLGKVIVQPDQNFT
Measured endpoint: % binding (EMAX) vs WT MET ECD (%)
Just the number in %, nothing appended.

Below: 4 binders and their reported % binding (EMAX) vs WT MET ECD.
1) 71G2 chimeric llama-human IgG1 mAb (antibody, V domains shown, human IgG1 CH1-CH2-CH3 and human CL lambda; also called 71G2 Human IgG1/lambda) VH: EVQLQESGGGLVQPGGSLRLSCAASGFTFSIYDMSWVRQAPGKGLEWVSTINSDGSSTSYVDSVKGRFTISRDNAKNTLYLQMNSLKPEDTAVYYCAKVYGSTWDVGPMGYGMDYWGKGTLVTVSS VL: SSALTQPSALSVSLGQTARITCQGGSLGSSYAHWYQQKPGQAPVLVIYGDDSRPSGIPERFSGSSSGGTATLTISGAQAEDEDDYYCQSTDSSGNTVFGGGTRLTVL : 100
2) 71D6 chimeric llama-human IgG1 mAb (antibody, V domains shown, human IgG1 CH1-CH2-CH3 and human CL lambda; also called 71D6 Human IgG1/lambda) VH: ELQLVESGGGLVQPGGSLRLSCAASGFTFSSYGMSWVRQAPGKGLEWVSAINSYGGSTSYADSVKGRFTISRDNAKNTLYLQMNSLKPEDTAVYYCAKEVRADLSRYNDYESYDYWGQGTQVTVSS VL: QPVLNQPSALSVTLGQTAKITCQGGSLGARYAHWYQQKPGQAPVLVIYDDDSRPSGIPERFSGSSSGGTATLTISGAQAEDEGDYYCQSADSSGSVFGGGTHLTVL : 100
3) 71C3 chimeric llama-human IgG1 mAb (antibody, V domains shown, human IgG1 CH1-CH2-CH3 and human CL lambda) VH: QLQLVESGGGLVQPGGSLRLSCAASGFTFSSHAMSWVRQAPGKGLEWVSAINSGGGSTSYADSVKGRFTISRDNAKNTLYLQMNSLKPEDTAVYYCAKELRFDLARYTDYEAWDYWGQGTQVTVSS VL: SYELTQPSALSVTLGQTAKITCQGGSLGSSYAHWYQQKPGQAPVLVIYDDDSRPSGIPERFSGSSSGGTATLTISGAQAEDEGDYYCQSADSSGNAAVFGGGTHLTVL : 100
4) 71D4 chimeric llama-human IgG1 mAb (antibody, V domains shown, human IgG1 CH1-CH2-CH3 and human CL lambda) VH: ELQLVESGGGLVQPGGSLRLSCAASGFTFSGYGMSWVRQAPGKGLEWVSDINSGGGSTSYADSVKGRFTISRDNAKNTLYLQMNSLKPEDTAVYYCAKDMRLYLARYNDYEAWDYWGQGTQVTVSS VL: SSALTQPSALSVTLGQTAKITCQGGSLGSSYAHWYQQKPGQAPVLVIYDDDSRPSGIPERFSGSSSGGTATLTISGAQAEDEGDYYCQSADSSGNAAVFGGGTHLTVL : 100

API: the following record is the query input.
Form field: reported % binding (EMAX) vs WT MET ECD of 71A3 chimeric llama-human IgG1 mAb (antibody, V domains shown, human IgG1 CH1-CH2-CH3 and human CL lambda) VH: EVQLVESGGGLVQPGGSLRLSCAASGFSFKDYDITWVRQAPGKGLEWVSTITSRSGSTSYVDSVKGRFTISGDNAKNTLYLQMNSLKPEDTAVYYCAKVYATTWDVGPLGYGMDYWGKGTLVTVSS VL: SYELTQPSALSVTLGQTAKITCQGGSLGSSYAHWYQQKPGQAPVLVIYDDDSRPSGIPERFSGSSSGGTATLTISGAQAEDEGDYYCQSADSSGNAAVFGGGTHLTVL 100
